target: UniProt:P01116; experiment: Binding to KRAS by surface plasmon resonance (SPR), Single Cycle Kinetics; details: SPR Single Cycle Kinetics, GDP-bound KRAS wild-type protein, 1:1 binding model; read-out: KRAS KD
*1 amine or outer side, *2 acyl side, *3 side chain or, on linkers, in order; H or OH if unused. Where a SMILES comes first, the peptide text is derived from it. Bridges are numbered along the chain shown (N, C = ends). [ ]: non-standard residue; d: D form. The star is where a group is joined. hPhe(3-Cl-4-CF3) = N[C@@H](CCc1ccc(C(F)(F)F)c(Cl)c1)C(=O)O; X52 = CCCN([C@@H](Cc1ccc(OC(F)(F)F)cc1)C(=O)[*:2])[*:1]; NPrPhe(4-CF3) = CCCN[C@@H](Cc1ccc(C(F)(F)F)cc1)C(=O)O; NEtPhe(4-F) = CCN[C@@H](Cc1ccc(F)cc1)C(=O)O; Pro(4-spirocPr) = O=C(O)[C@@H]1CC2(CC2)CN1; NMeGly(cPent) = CN[C@H](C(=O)O)C1CCCC1; Pro(4,4-F2) = O=C(O)[C@@H]1CC(F)(F)CN1; Pro(4,4-Me2) = CC1(C)CN[C@H](C(=O)O)C1; NMeD = CN[C@@H](CC(=O)O)C(=O)O; NMeL = CN[C@@H](CC(C)C)C(=O)O; Morpholide = C1CN(*)CCO1; NMeA = CN[C@@H](C)C(=O)O; Ac5c = NC1(C(=O)O)CCCC1; Aze = O=C(O)[C@@H]1CCN1; Ac4c = NC1(C(=O)O)CCC1; NEtG = CCNCC(=O)O; Sar = CNCC(=O)O
PROPERTY: log10 of Kd (log10 of the value in nM)

{"COMPOUND": "CC[C@H](C)[C@@H]1NC(=O)[C@H](CC(C)C)N(C)C(=O)C[C@@H](C(=O)N2CCOCC2)N(C)C(=O)[C@H](C2CCCC2)N(C)C(=O)C2(CCCC2)NC(=O)[C@@H]2CCCN2C(=O)[C@H](CCc2ccc(C(F)(F)F)c(Cl)c2)NC(=O)CN(C)C(=O)[C@H](Cc2ccc(F)cc2)N(CC)C(=O)[C@@H]2CCN2C(=O)[C@H](C)N(C)C1=O [PP0218] ([NMeL]I[NMeA][Aze][NEtPhe(4-F)][Sar][hPhe(3-Cl-4-CF3)]P[Ac5c][NMeGly(cPent)][NMeD]-Morpholide; lactam N-11)", "VALUE REPORTED": -0.70}
{"COMPOUND": "CCCN1C(=O)[C@@H]2CCN2C(=O)[C@H](C)N(C)C(=O)[C@H]([C@@H](C)CC)NC(=O)[C@H](CC(C)C)N(C)C(=O)C[C@@H](C(=O)N2CCOCC2)N(C)C(=O)[C@H](C2CCCC2)N(C)C(=O)C2(CCCC2)NC(=O)[C@@H]2CCCN2C(=O)[C@H](CCc2ccc(C(F)(F)F)c(Cl)c2)NC(=O)CN(C)C(=O)[C@@H]1Cc1ccc(OC(F)(F)F)cc1 [PP0136] ([NMeL]I[NMeA][Aze][X52][Sar][hPhe(3-Cl-4-CF3)]P[Ac5c][NMeGly(cPent)][NMeD]-Morpholide; lactam N-11)", "VALUE REPORTED": 0.11}
{"COMPOUND": "CCCN1C(=O)[C@@H]2CCN2C(=O)CN(C)C(=O)[C@H]([C@@H](C)CC)NC(=O)[C@H](CC(C)C)N(C)C(=O)C[C@@H](C(=O)N2CCOCC2)N(C)C(=O)[C@H](C2CCCC2)N(C)C(=O)C2(CCCC2)NC(=O)[C@@H]2CC(C)(C)CN2C(=O)[C@H](CCc2ccc(C(F)(F)F)c(Cl)c2)NC(=O)CN(C)C(=O)[C@@H]1Cc1ccc(C(F)(F)F)cc1 [PP0456] ([NMeL]I[Sar][Aze][NPrPhe(4-CF3)][Sar][hPhe(3-Cl-4-CF3)][Pro(4,4-Me2)][Ac5c][NMeGly(cPent)][NMeD]-Morpholide; lactam N-11)", "VALUE REPORTED": -1.15}
{"COMPOUND": "CCCN1C(=O)[C@@H]2CCN2C(=O)CN(C)C(=O)[C@H]([C@@H](C)CC)NC(=O)[C@H](CC(C)C)N(C)C(=O)C[C@@H](C(=O)N2CCOCC2)NC(=O)[C@H](C2CCCC2)N(C)C(=O)C2(CCCC2)NC(=O)[C@@H]2CC(F)(F)CN2C(=O)[C@H](CCc2ccc(C(F)(F)F)c(Cl)c2)NC(=O)CN(C)C(=O)[C@@H]1Cc1ccc(C(F)(F)F)cc1 [PP0351] ([NMeL]I[Sar][Aze][NPrPhe(4-CF3)][Sar][hPhe(3-Cl-4-CF3)][Pro(4,4-F2)][Ac5c][NMeGly(cPent)]D-Morpholide; lactam N-11)", "VALUE REPORTED": 0.04}
{"COMPOUND": "CCC[C@H]1C(=O)N[C@@H]([C@@H](C)CC)C(=O)N(C2CC2)CC(=O)N(C)[C@H]2C/C=C\\CCN(C2=O)[C@@H](Cc2ccc(C(F)(F)F)cc2)C(=O)N(C)CC(=O)N[C@@H](CCc2ccc(C(F)(F)F)c(OC)c2)C(=O)N2C[C@H](OCC)C[C@H]2C(=O)NC2(CC(C)(C)C2)C(=O)N(C)[C@@H](CC(C)(C)C)C(=O)N(C)[C@H](C(=O)N(C)C)CC(=O)N1C", "VALUE REPORTED": -0.55}
{"COMPOUND": "CCO[C@@H]1C[C@H]2C(=O)NC3(CC(C)(C)C3)C(=O)N(C)[C@@H](C(CC)CC)C(=O)N(C)[C@H](C(=O)N3CCCCC3)CC(=O)N(C)[C@H]3CCC/C=C/c4ccc(cc4)C[C@@H](C(=O)N(C)CC(=O)N[C@@H](CCc4cc(F)c(C(F)(F)F)c(F)c4)C(=O)N2C1)N1CC/C=C\\C[C@@H](C1=O)N(C)C(=O)CN(C)C(=O)[C@H]([C@@H](C)CC)NC3=O", "VALUE REPORTED": -0.10}
{"COMPOUND": "CCC(CC)[C@H]1C(=O)N(C)[C@H](C(=O)N(C)C)CC(=O)N(C)[C@@H](COC)C(=O)N[C@@H]([C@@H](C)CC)C(=O)N(C)CC(=O)N(C)[C@H]2C/C=C\\CCN(C2=O)[C@@H](Cc2ccc(C(F)F)cc2)C(=O)N(C)CC(=O)N[C@@H](CCc2ccc(Cl)c(Cl)c2)C(=O)N2C[C@H](OC3CCCC3)C[C@H]2C(=O)NC2(CC(C)(C)C2)C(=O)N1C", "VALUE REPORTED": -0.40}
{"COMPOUND": "CCCN1C(=O)CN(C)C(=O)CN(CC)C(=O)[C@H]([C@@H](C)CC)NC(=O)[C@H](CC(C)C)N(C)C(=O)C[C@@H](C(=O)N(C)C)N(C)C(=O)[C@H](C2CCCC2)N(C)C(=O)C2(CCC2)NC(=O)[C@@H]2CC(F)(F)CN2C(=O)[C@H](CCc2ccc(C(F)(F)F)c(Cl)c2)NC(=O)CN(C)C(=O)[C@@H]1Cc1ccc(C(F)(F)F)cc1 [PP0426] ([NMeL]I[NEtG][Sar][NPrPhe(4-CF3)][Sar][hPhe(3-Cl-4-CF3)][Pro(4,4-F2)][Ac4c][NMeGly(cPent)][NMeD]-NMe2; lactam N-11)", "VALUE REPORTED": -0.92}
{"COMPOUND": "CCCN1C(=O)CN(C)C(=O)CN(CC)C(=O)[C@H]([C@@H](C)CC)NC(=O)[C@H](CC(C)C)N(C)C(=O)C[C@@H](C(=O)N2CCOCC2)N(C)C(=O)[C@H](C2CCCC2)N(C)C(=O)C2(CCCC2)NC(=O)[C@@H]2CC3(CC3)CN2C(=O)[C@H](CCc2ccc(C(F)(F)F)c(Cl)c2)NC(=O)CN(C)C(=O)[C@@H]1Cc1ccc(C(F)(F)F)cc1 [PP0295] ([NMeL]I[NEtG][Sar][NPrPhe(4-CF3)][Sar][hPhe(3-Cl-4-CF3)][Pro(4-spirocPr)][Ac5c][NMeGly(cPent)][NMeD]-Morpholide; lactam N-11)", "VALUE REPORTED": -0.28}

----------
target: GDP-bound KRAS wild-type protein (Homo sapiens, UniProt P01116); test: Binding to KRAS by surface plasmon resonance (SPR), Single Cycle Kinetics; conditions: SPR, Single Cycle Kinetics, GDP-bound KRAS wild-type protein; read-out: KRAS KD
Sequence (P01116 whole entry): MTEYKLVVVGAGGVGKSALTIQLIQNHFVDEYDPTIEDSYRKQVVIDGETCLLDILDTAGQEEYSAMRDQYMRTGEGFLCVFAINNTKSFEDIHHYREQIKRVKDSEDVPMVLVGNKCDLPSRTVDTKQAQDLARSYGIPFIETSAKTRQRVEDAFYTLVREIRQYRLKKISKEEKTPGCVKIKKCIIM
compounds and their reported Kd
PROPERTY: Kd (pM)

{"COMPOUND": "CCO[C@@H]1C[C@H]2C(=O)NC3(CC(C)(C)C3)C(=O)N(C)[C@@H](C3CCCC3)C(=O)N(C)[C@H](C(=O)N(C)CC)CC(=O)N(C)[C@H]3CCCC/C=C/c4ccc(cc4)C[C@@H](C(=O)N(C)CC(=O)N[C@@H](CCc4cc(F)c(C(F)(F)F)c(F)c4)C(=O)N2C1)N1CC/C=C\\C[C@@H](C1=O)N(C)C(=O)CN(C)C(=O)[C@H]([C@@H](C)CC)NC3=O [PP1829]", "UNIT ABBREV": "pM", "VALUE REPORTED": 33}
{"COMPOUND": "CCO[C@@H]1C[C@H]2C(=O)NC3(CCCC3)C(=O)N(C)[C@@H](C3CCCC3)C(=O)N(C)[C@H](C(=O)N3CCOCC3)CC(=O)N(C)[C@@H](COC)C(=O)N[C@@H]([C@@H](C)CC)C(=O)N(C)CC(=O)N(C)[C@H]3CCCCCN(C3=O)[C@@H](Cc3ccc(C(F)(F)F)cc3)C(=O)N(C)CC(=O)N[C@@H](CCc3cc(F)c(C(F)(F)F)c(F)c3)C(=O)N2C1 [PP0841]", "UNIT ABBREV": "pM", "VALUE REPORTED": 730}
{"COMPOUND": "CCOC[C@H]1C(=O)N[C@@H]([C@@H](C)CC)C(=O)N(C)CC(=O)N(C)[C@H]2C/C=C\\CCN(C2=O)[C@@H](Cc2ccc(C)cc2)C(=O)N(C)CC(=O)N[C@@H](CCc2ccc(C(F)(F)F)c(Cl)c2)C(=O)N2C[C@H](OCC)C[C@H]2C(=O)NC2(CC(C)(C)C2)C(=O)N(C)[C@@H](C2CCCC2)C(=O)N(C)[C@H](C(=O)N(C)C)CC(=O)N1C [PP2395]", "UNIT ABBREV": "pM", "VALUE REPORTED": 72}
